From: patent US11578061B2

ASSAYED_SYSTEM: recombinant human LRRK2 (catalytic domain only [amino acids 970-2527], GST-tagged) (Homo sapiens (Human))
ASSAY_NOTES: LRRK2 Enzymatic Assay
EXPERIMENTAL_PARAMETERS: LRRKtide substrate, [32P]-ATP
pIC50: −log10 of the molar value.
Reported pIC50 values follow for various compounds

COMPOUND	pIC50
Cc1c(Nc2ncc(Cl)c(OCC3CC(F)(F)C3)n2)cnn1C1CC(C#N)C1 (stereo not shown)	> 7.30
Cc1cnc(Nc2ccc(N3C[C@@H](C)O[C@@H](C)C3)cc2)nc1OCC1CCC(O)CC1 (stereo partly shown)	> 7.30
N[C@H]1CC[C@@H](COc2ccnc(Nc3ccc(N4CCOCC4)cc3)n2)C1	6.70 to 7.30
COCCn1cc(Nc2ncc(F)c(OC[C@H]3CC[C@H](O)CC3)n2)cn1	6.70 to 7.30
FC(F)CN[C@H]1CC[C@H](COc2ccnc(Nc3ccc(N4CCOCC4)cc3)n2)CC1	> 7.30
COc1cnc(Nc2ccc(N3CCOCC3)cc2)nc1OC[C@H]1CC[C@H](N)CC1	> 7.30
O[C@H]1CC[C@H](COc2nc(Nc3ccc(N4CC5(CCOC5)C4)cc3)ncc2F)CC1	> 7.30
O=C(N1CCC(COc2nc(Nc3ccc(N4CCOCC4)cc3)ncc2Cl)CC1)C(F)(F)F	6.70 to 7.30
CC(=O)N1CCC(COc2nc(Nc3cn(C(C)(C)C#N)nc3C)ncc2Cl)C(F)(F)C1 (stereo not shown)	> 7.30
Cc1nn(C(C)(C)C#N)cc1Nc1ncc(F)c(OCC2CCC(C#N)CC2)n1 (racemic)	> 7.30
O=C(N[C@H]1CC[C@H](COc2nc(Nc3ccc(N4C5CCC4COC5)cc3)ncc2F)CC1)C(F)(F)F	> 7.30
CN[C@H]1CC[C@H](COc2nc(Nc3ccc(N4CCOCC4)cc3)ncc2Cl)CC1	> 7.30
Cc1nn(C2CC(C#N)C2)cc1Nc1ncc(Cl)c(OCC2CC3(COC3)C2)n1 (stereo not shown)	> 7.30
Cc1nn(C(C)C)cc1Nc1ncc(F)c(OC[C@H]2CC[C@H](NC(=O)C(F)(F)F)CC2)n1	> 7.30
CC(=O)N[C@H]1CC[C@H](COc2nc(Nc3cn(C(F)F)nc3C)ncc2F)CC1	6.70 to 7.30
CC(=O)N[C@H]1CC[C@@H](COc2nc(Nc3ccc(N4CCOCC4)cc3)ncc2F)C1	6.70 to 7.30

###

# IC50 values compiled below
ASSAYED_SYSTEM: recombinant human LRRK2 (catalytic domain only [amino acids 970-2527], GST-tagged) (Homo sapiens (Human), UniProt Q5S007)
Sequence (Q5S007 970-2527): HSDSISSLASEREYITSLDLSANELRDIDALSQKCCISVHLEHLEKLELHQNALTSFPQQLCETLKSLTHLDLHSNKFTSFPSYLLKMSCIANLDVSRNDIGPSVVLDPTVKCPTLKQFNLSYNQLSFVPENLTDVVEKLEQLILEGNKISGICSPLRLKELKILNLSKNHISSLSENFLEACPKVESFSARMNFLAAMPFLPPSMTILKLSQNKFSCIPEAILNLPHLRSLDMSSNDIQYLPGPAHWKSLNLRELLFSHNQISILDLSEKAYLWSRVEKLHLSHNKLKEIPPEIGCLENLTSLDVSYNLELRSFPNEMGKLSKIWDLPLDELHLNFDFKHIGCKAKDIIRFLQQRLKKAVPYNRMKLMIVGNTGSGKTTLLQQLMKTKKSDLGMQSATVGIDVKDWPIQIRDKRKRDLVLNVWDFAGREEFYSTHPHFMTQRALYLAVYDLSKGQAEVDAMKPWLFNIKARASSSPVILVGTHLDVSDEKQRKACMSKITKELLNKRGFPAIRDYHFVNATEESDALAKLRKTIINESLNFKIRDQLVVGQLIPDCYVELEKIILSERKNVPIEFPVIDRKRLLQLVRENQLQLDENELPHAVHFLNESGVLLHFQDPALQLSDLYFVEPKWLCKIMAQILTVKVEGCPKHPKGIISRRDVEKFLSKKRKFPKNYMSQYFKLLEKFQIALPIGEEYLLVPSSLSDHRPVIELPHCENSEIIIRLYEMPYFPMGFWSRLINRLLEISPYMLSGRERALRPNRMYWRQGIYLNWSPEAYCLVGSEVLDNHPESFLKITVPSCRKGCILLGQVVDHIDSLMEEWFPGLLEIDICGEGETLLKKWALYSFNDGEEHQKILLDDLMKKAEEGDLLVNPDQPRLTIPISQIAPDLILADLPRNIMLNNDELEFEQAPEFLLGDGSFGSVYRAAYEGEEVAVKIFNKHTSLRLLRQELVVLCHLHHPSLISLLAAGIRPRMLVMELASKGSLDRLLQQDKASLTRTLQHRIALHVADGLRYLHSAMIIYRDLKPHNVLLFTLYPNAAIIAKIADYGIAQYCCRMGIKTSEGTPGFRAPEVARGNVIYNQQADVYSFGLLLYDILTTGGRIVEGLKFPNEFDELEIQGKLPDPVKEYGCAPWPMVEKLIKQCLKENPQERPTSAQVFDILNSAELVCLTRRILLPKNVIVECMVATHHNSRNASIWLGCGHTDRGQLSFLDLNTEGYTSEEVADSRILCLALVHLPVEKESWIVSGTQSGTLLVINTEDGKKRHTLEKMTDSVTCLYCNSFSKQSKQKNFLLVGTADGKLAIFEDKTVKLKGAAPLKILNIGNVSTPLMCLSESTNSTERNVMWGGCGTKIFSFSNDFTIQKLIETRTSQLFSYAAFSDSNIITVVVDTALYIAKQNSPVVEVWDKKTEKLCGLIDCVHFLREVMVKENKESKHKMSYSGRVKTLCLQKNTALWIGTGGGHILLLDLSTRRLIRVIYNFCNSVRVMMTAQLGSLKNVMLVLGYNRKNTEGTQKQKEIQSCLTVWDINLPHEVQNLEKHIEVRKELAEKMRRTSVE
ASSAY_NOTES: LRRK2 Enzymatic Assay
EXPERIMENTAL_PARAMETERS: LRRKtide substrate, [32P]-ATP
EXPERIMENTAL_ENDPOINT: IC50

COMPOUND	EXPERIMENTAL_ENDPOINT	DATA_VALUE
CN[C@H]1CC[C@H](COc2nc(Nc3ccc(N4CCOCC4)cc3)ncc2C2CC2)CC1	IC50	50 to 200 nM
Cc1nn(C(C)(C)C#N)cc1Nc1ncc(C#N)c(OCC2CC(F)(F)C2)n1	IC50	50 to 200 nM
Cc1nn(C(F)F)cc1Nc1ncc(F)c(OC[C@H]2CC[C@H](O)CC2)n1	IC50	50 to 200 nM
CC(=O)NC12CCC(COc3ccnc(Nc4cn(C(C)(C)C#N)nc4C)n3)(CC1)CC2	IC50	200 to 400 nM
Cc1nn(C(C)(C)C#N)cc1Nc1ncc(F)c(OCC2CC(C#N)C2)n1 (single isomer, unassigned) [Example 291]	IC50	< 50 nM
N[C@H]1CC[C@H](COc2ccnc(Nc3ccn(CC(F)F)n3)n2)CC1	IC50	50 to 200 nM

###

ASSAYED_SYSTEM: recombinant human LRRK2 (catalytic domain only [amino acids 970-2527], GST-tagged) (Homo sapiens (Human))
ASSAY_NOTES: LRRK2 Enzymatic Assay
EXPERIMENTAL_PARAMETERS: LRRKtide substrate, [32P]-ATP
pIC50: −log10 of the molar value.
Each entry below carries its recorded pIC50.

MOLECULE	pIC50
CC(=O)NC12CCC(COc3ccnc(Nc4ccc(N5CCOCC5)cc4)n3)(CC1)CC2	< 6.40
Cc1nn(C2CC(C#N)C2)cc1Nc1ncc(Cl)c(OCC2(F)CCN(C)CC2)n1 (stereo not drawn)	6.40 to 6.70
CC(=O)N[C@H]1CC[C@H](COc2ccnc(Nc3ccc(N4CCOCC4)cc3)n2)CC1	6.70 to 7.30
Cc1nn(C(C)(C)C#N)cc1Nc1ncc(Cl)c(OCC2CCC(O)CC2)n1 (stereo not drawn)	> 7.30
CN[C@H]1CC[C@H](COc2ccnc(Nc3ccc(N4CCOCC4)cc3)n2)CC1	> 7.30
Cc1c(Nc2ncc(F)c(OC[C@H]3CC[C@H](O)CC3)n2)cnn1C(C)(C)C#N	> 7.30
CCn1cc(Nc2ncc(F)c(OC[C@H]3CC[C@H](O)CC3)n2)cn1	6.70 to 7.30
Cc1nn(C(C)(C)C#N)cc1Nc1nc(Cl)c(F)c(OC[C@H]2CC[C@H](O)CC2)n1	< 6.40
COC1CCC(COc2nc(Nc3cn(C(C)(C)C#N)nc3C)ncc2Cl)CC1 (stereo not drawn)	> 7.30
Fc1cnc(Nc2ccc(N3CCOCC3)cc2)nc1OCC1CCC(OC(F)(F)F)CC1 (single isomer, unassigned) [Example 281]	< 6.40
CCc1nn(C)cc1Nc1ncc(F)c(OC[C@H]2CC[C@H](O)CC2)n1	> 7.30
Cc1nn(C(C)(C)C#N)cc1Nc1nccc(OCC2(F)CCNCC2)n1	6.40 to 6.70
NC[C@H]1CC[C@H](COc2ccnc(Nc3ccc(N4CCOCC4)cc3)n2)CC1	> 7.30
Cc1nn(C(C)(C)C#N)cc1Nc1ncc(Cl)c(OC[C@H]2CC[C@H](C(C)(C)O)CC2)n1	> 7.30
CN1CCC(COc2nc(Nc3ccc(N4CCOCC4)cc3)ncc2Cl)CC1	> 7.30
CN[C@H]1CC[C@H](COc2ccnc(Nc3cnn(C(C)C)c3)n2)CC1	< 6.40
Cc1nn(C(C)(C)C#N)cc1Nc1ncc(F)c(OCC2CCNCC2F)n1 (single isomer, unassigned) [Example 171]	6.40 to 6.70
C[C@@H]1CN(c2ccc(Nc3ncc(F)c(OCC4CCC(C)(O)CC4)n3)cc2)C[C@H](C)O1 (stereo partly drawn)	> 7.30
CC(C)(O)[C@H]1CC[C@H](COc2nc(Nc3ccc(N4CCOCC4)cc3)ncc2Cl)CC1	> 7.30
O=C(N[C@H]1CC[C@H](COc2ccnc(Nc3ccc(N4CCOCC4)cc3)n2)CC1)C(F)(F)F	6.70 to 7.30
Cc1nn(C2CC(C#N)C2)cc1Nc1ncc(Cl)c(OCC2CCNCC2F)n1 (stereo not drawn)	6.70 to 7.30
Cc1nn(C(C)(C)C#N)cc1Nc1nccc(OCC2CCC(O)CC2)n1 (stereo not drawn)	6.40 to 6.70
CC(C)OC1CCC(COc2nc(Nc3ccc(N4CCOCC4)cc3)ncc2F)CC1 (racemic)	6.70 to 7.30
c1cc(OCC2CCNCC2)nc(Nc2ccc(N3CCOCC3)cc2)n1	6.40 to 6.70
Cc1nn(C(C)(C)C#N)cc1Nc1ncc(F)c(OCC2CCCC(O)CC2)n1 (single isomer, unassigned)	> 7.30
Fc1cnc(Nc2ccc(N3CCOCC3)cc2)nc1OCC1CCNCC1F (stereo not drawn)	> 7.30
COc1cnc(Nc2ccc(N3CCOCC3)cc2)nc1OC[C@H]1CC[C@H](N(C)C)CC1	> 7.30

###

Listed here: items and their measured pIC50.
ASSAYED_SYSTEM: recombinant human LRRK2 (catalytic domain only [amino acids 970-2527], GST-tagged) (Homo sapiens (Human), UniProt Q5S007)
ASSAY_NOTES: LRRK2 Enzymatic Assay
EXPERIMENTAL_PARAMETERS: LRRKtide substrate, [32P]-ATP
pIC50: −log10 of the molar value.

COMPOUND	pIC50
CC(=O)N[C@H]1CC[C@H](COc2nc(Nc3cn(C)nc3C)ncc2F)CC1	6.70 to 7.30
CN[C@H]1CC[C@H](COc2nc(Nc3ccc(N4CCOCC4)cc3)ncc2OC)CC1	> 7.30
CCO[C@H]1CC[C@@H](COc2nc(Nc3ccc(N4CCOCC4)cc3)ncc2F)CC1	6.70 to 7.30
COCCn1ncc(Nc2ncc(F)c(OC[C@H]3CC[C@H](O)CC3)n2)c1Cl	6.70 to 7.30
C[C@@H]1CN(c2ccc(Nc3ncc(C4CC4)c(OCC4CCC(O)CC4)n3)cc2)C[C@H](C)O1 (stereo partly drawn)	> 7.30
O[C@H]1CC[C@H](COc2nc(Nc3cnn(C4CCOCC4)c3)ncc2F)CC1	6.40 to 6.70
Cc1nn(C(C)(C)C#N)cc1Nc1ncc(F)c(OCC2CCC(OC(F)(F)F)CC2)n1 (racemic)	6.40 to 6.70
Cc1nn(C(C)(C)C#N)cc1Nc1ncc(Cl)c(OCC2(F)CCN(C)CC2)n1	> 7.30
CC(=O)N[C@H]1CC[C@@H](COc2nc(Nc3cn(C(C)(C)C#N)nc3C)ncc2F)C1	> 7.30
CC(C)(O)[C@H]1CC[C@H](COc2nc(Nc3ccc(N4CCOCC4)cc3)ncc2F)CC1	6.70 to 7.30
CC(C)n1cc(Nc2ncc(F)c(OC[C@H]3CC[C@H](O)CC3)n2)c(Cl)n1	6.40 to 6.70
COCCn1ncc(Nc2ncc(F)c(OC[C@H]3CC[C@H](NC(C)=O)CC3)n2)c1Cl	> 7.30
C[C@@H]1CN(c2ccc(Nc3ncc(F)c(OCC45CCC(O)(CC4)CC5)n3)cc2)C[C@H](C)O1	6.70 to 7.30
Cn1cc(Nc2ncc(F)c(OC[C@H]3CC[C@H](O)CC3)n2)cn1	> 7.30
CC(=O)N[C@H]1CC[C@H](COc2nc(Nc3cn(C(C)C)nc3C)ncc2F)CC1	> 7.30
C[C@@H]1CN(c2ccc(Nc3ncc(F)c(OCC4CCC(OC(F)(F)F)CC4)n3)cc2)C[C@H](C)O1 (stereo partly drawn)	< 6.40
O[C@H]1CC[C@H](COc2nc(Nc3cnn(C4CCOCC4)c3C3CC3)ncc2F)CC1	> 7.30
COc1nn(C2CC2)cc1Nc1ncc(F)c(OC[C@H]2CC[C@H](O)CC2)n1	6.40 to 6.70
Cc1nn(C(C)(C)C#N)cc1Nc1ncc(F)c(OC[C@H]2CC[C@@H](O)[C@H](F)C2)n1	> 7.30
COC1CCC(COc2ccnc(Nc3cn(C(C)(C)C#N)nc3C)n2)CC1 (stereo not drawn)	6.40 to 6.70
CC(=O)N[C@H]1CC[C@H](COc2nc(Nc3cn(C(C)(C)C#N)nc3C)ncc2Cl)CC1	> 7.30
CN[C@H]1CC[C@@H](COc2nc(Nc3cnn(C4CC(C#N)C4)c3C)ncc2Cl)C1 (stereo partly drawn)	> 7.30
CC(=O)N[C@H]1CC[C@H](COc2nc(Nc3cnn(C4COC4)c3)ncc2F)CC1	6.70 to 7.30
CC(=O)N[C@H]1CC[C@H](COc2ccnc(Nc3ccc(N4C[C@@H](C)O[C@@H](C)C4)cc3)n2)CC1	6.70 to 7.30
